Target: HCV RNA-dependent RNA polymerase NS5B (Δ21) (Hepatitis C virus genotype 1b)
Sequence (P26663 2420-2989, stated change not applied): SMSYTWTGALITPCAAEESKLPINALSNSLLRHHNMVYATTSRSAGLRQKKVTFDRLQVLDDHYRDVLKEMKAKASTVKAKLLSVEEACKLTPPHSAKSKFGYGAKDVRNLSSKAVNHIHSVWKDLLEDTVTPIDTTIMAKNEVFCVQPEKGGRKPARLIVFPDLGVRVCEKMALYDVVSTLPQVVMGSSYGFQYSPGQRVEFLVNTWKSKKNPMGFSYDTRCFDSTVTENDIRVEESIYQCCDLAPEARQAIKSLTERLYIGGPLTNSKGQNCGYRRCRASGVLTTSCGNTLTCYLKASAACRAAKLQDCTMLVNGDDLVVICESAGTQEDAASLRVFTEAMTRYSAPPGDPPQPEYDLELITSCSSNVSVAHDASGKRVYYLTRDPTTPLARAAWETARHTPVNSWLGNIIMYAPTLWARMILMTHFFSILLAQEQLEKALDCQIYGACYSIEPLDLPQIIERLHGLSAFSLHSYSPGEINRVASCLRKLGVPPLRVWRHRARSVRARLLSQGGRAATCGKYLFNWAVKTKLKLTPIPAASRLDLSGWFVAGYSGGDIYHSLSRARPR
Experiment: Assay for HCV RNA-dependent RNA polymerase activity (SPA, [3H]-GTP incorporation)
Type: biochemical
Details: Δ21 Activity (IC50 μM), 50 nM NS5B (Δ21), class symbols
Kindly state IC50 for each of the entries shown.

Lookup: Any idea what IC50 was measured for CN(C)C(=O)c1cc(C(=O)N[C@H]2CCCC[C@@H]2OCc2ccccc2)n(CC(=O)NC2CCCC[C@@H]2OCc2ccccc2)n1 (stereo partly drawn) ?
Found: > 1 µM

Lookup: Next entry: `O=C(Cn1nc(C(=O)NCCCn2ccnc2)cc1C(=O)N[C@H]1CCCC[C@@H]1OCc1ccccc1)N[C@H]1CCCC[C@@H]1OCc1ccccc1`
Found: > 1 µM

Lookup: Next entry: O=C(Cn1nc(C(=O)NC2CCCc3ccccc32)cc1C(=O)N[C@H]1CCCC[C@@H]1OCc1ccccc1)N[C@H]1CCCC[C@@H]1OCc1ccccc1 (stereo partly drawn)
Found: > 1 µM

Lookup: Next entry: `O=C(Cn1nc(-c2cccs2)cc1C(=O)N[C@H]1CCCC[C@@H]1OCc1ccccc1)N[C@H]1CCCC[C@@H]1OCc1ccccc1`
Found: > 1 µM

Lookup: Next entry: CCOC(=O)c1cc(C(=O)N[C@H]2CCCC[C@@H]2OCc2ccccc2)n(CC(=O)NC2CCCC[C@@H]2NCc2ccccc2)n1 (stereo partly drawn)
Found: > 1 µM

Lookup: Next entry: `CC(C)(C)OC(=O)Nc1cc(C(=O)N[C@H]2CCCC[C@@H]2OCc2ccccc2)n(CC(=O)N[C@H]2CCCC[C@@H]2OCc2ccccc2)n1`
Found: > 1 µM

Lookup: Next entry: `Cc1cc(C(=O)N[C@H]2CCCC[C@@H]2OCc2ccccc2)n(CC(=O)N[C@H]2CCCC[C@@H]2OCc2ccccc2)n1`
Found: > 1 µM

Lookup: Next entry: CCOC(=O)c1cc(C(=O)N[C@H]2CCCC[C@@H]2OCc2ccccc2)n(C(C)C(=O)N[C@H]2CCCC[C@@H]2OCc2ccccc2)n1 (stereo partly drawn)
Found: > 1 µM

Lookup: Next entry: `Cc1ccc(OCC2CCCCC2)c(NC(=O)c2cc(C(=O)NC#N)nn2CC(=O)N[C@H]2CCCC[C@@H]2OCc2ccccc2)c1`
Found: < 0.05 µM

Lookup: Next entry: `O=C(Cn1nc(C(=O)NCCc2ccccn2)cc1C(=O)N[C@H]1CCCC[C@@H]1OCc1ccccc1)N[C@H]1CCCC[C@@H]1OCc1ccccc1`
Found: > 1 µM

Lookup: Next entry: `O=C(Cn1nc(NS(=O)(=O)c2ccc3ccccc3c2)cc1C(=O)N[C@H]1CCCC[C@@H]1OCc1ccccc1)N[C@H]1CCCC[C@@H]1OCc1ccccc1`
Found: 0.05 to 0.1 µM

Lookup: Next entry: `Cc1ccc(OCc2ccsc2)c(NC(=O)c2cc(C(=O)O)nn2CC(=O)N[C@H]2CCCC[C@@H]2OCc2ccccc2)c1`
Found: < 0.05 µM

Lookup: Next entry: O=C(Cn1nc(C(=O)O)cc1C(=O)NC12CC3CC(CC(C3)C1)C2)NC1CCCC[C@@H]1OCc1ccccc1 (stereo partly drawn)
Found: > 1 µM

Lookup: Next entry: `O=C(Cn1nc(NS(=O)(=O)c2cccc(F)c2)cc1C(=O)N[C@H]1CCCC[C@@H]1OCc1ccccc1)N[C@H]1CCCC[C@@H]1OCc1ccccc1`
Found: 0.05 to 0.1 µM

Lookup: Next entry: `O=C(Cn1nc(NS(=O)(=O)c2ccc(C(F)(F)F)cc2)cc1C(=O)N[C@H]1CCCC[C@@H]1OCc1ccccc1)N[C@H]1CCCC[C@@H]1OCc1ccccc1`
Found: 0.05 to 0.1 µM

Lookup: Next entry: `CCOC(=O)CNC(=O)Nc1cc(C(=O)N[C@H]2CCCC[C@@H]2OCc2ccccc2)n(CC(=O)N[C@H]2CCCC[C@@H]2OCc2ccccc2)n1`
Found: > 1 µM

Lookup: Next entry: `CCOC(=O)c1cc(C(=O)N(C)[C@H]2CCCC[C@@H]2OCc2ccccc2)n(CC(=O)N[C@H]2CCCC[C@@H]2OCc2ccccc2)n1`
Found: > 1 µM

Lookup: Next entry: `Cc1ccc(OCC2CCC2)c(NC(=O)c2cc(C(=O)O)nn2CC(=O)N[C@H]2CCCC[C@@H]2OCc2ccccc2)c1`
Found: < 0.05 µM

Lookup: Next entry: `COc1ccc(CNC(=O)c2cc(C(=O)N[C@H]3CCCC[C@@H]3OCc3ccccc3)n(CC(=O)N[C@H]3CCCC[C@@H]3OCc3ccccc3)n2)c(OC)c1`
Found: 0.05 to 0.1 µM

Lookup: Next entry: `O=C(Cn1nc(NS(=O)(=O)c2ccc(Cl)cc2)cc1C(=O)N[C@H]1CCCC[C@@H]1OCc1ccccc1)N[C@H]1CCCC[C@@H]1OCc1ccccc1`
Found: < 0.05 µM

Lookup: Next entry: `COC(=O)CCCCCNC(=O)CCCCCNC(=O)c1cc(C(=O)N[C@H]2CCCC[C@@H]2OCc2ccccc2)n(CC(=O)N[C@H]2CCCC[C@@H]2OCc2ccccc2)n1`
Found: > 1 µM

Lookup: Next entry: `COc1ccc(S(=O)(=O)Nc2cc(C(=O)N[C@H]3CCCC[C@@H]3OCc3ccccc3)n(CC(=O)N[C@H]3CCCC[C@@H]3OCc3ccccc3)n2)cc1`
Found: 0.05 to 0.1 µM

Lookup: Next entry: `COc1ccc(CNC(=O)c2cc(C(=O)N[C@H]3CCCC[C@@H]3OCc3ccccc3)n(CC(=O)N[C@H]3CCCC[C@@H]3OCc3ccccc3)n2)cc1`
Found: 0.05 to 0.1 µM

Lookup: Next entry: `C=CCOc1ccccc1NC(=O)Cn1nc(C(=O)O)cc1C(=O)N[C@H]1CCCC[C@@H]1OCc1ccccc1`
Found: > 1 µM
